biological target: Protein Mdm4 (Homo sapiens) + E3 ubiquitin-protein ligase Mdm2 (Homo sapiens) (UniProt O15151+Q00987); assay: inhibitors of human Mdm2-MdmX association, primary screen, cell-based, luminescence, split luciferase, SaOS-2, uHTS (AID 485346); conditions: SaOS-2 split-luciferase Mdm2/MdmX complementation, at 8 µM, hits give high values
Sequence (O15151 whole entry, looked up): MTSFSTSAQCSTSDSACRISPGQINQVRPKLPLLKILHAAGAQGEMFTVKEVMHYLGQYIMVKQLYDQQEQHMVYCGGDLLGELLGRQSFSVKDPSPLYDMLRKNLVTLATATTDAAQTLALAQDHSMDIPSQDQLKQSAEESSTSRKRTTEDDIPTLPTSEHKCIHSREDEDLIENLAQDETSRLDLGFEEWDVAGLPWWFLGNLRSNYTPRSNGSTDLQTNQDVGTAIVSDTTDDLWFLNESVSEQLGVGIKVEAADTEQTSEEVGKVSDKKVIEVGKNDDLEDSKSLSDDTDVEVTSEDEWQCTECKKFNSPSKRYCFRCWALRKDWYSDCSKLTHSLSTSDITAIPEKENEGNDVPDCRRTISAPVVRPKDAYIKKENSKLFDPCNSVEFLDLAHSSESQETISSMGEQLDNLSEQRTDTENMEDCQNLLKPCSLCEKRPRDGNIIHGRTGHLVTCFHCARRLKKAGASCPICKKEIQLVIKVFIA
Sequence (Q00987 whole entry, looked up): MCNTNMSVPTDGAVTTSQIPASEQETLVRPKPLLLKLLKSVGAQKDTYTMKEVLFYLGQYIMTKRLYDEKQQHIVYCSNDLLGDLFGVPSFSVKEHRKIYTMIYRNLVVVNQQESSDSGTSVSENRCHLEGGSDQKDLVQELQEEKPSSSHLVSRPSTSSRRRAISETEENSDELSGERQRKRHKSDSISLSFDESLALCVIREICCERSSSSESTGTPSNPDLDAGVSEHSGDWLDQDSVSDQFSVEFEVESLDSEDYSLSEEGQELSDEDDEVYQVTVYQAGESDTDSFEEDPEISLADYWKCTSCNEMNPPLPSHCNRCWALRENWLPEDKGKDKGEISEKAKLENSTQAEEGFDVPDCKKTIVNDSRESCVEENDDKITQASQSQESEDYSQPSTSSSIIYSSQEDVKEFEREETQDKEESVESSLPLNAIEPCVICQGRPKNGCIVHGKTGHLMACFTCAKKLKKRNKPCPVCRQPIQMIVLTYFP
Out of some 330,000 compounds screened, about 10,000 (3%) were called active. The sample holds actives, similar compounds and a random draw of the others, so the mix is not that of the screen.
measurementType: inhibition (%)

[[record]]
smilesrepr = "CCN=c1sc(C(=O)Nc2ccccc2)c(C)n1CC"
unitname = "%"
testresult = 18.2

[[record]]
smilesrepr = "CC(C)(C)NC(=O)NC(=O)CN1CCC(Cc2ccccc2)CC1"
unitname = "%"
testresult = 12

[[record]]
smilesrepr = "COc1ccc(-c2c(C(C)=O)c(C)nc3sc4c(=O)n(-c5ccc(C)cc5)nnc4c23)cc1"
unitname = "%"
testresult = 16.5


====

molecular target: Protein Mdm4 (Homo sapiens) + E3 ubiquitin-protein ligase Mdm2 (Homo sapiens) (UniProt O15151+Q00987); assay: inhibitors of human Mdm2-MdmX association, primary screen, cell-based, luminescence, split luciferase, SaOS-2, uHTS (AID 485346); conditions: SaOS-2 split-luciferase Mdm2/MdmX complementation, at 8 µM, hits give high values
The whole screen tested about 330,000 compounds, of which about 10,000 (3%) were called active. What follows is part of a selection rich in actives, with near analogues and random picks from the rest.
measurementType: inhibition (%)

[[record]]
compound = "CC(OC(=O)c1ccc(-n2cnnn2)cc1)C(=O)NCc1ccccc1 (stereo not drawn)"
unitname = "%"
testresult = 8.29

[[record]]
compound = "CCOCCCNC(=O)C(NC(=O)c1ccc(=O)[nH]c1)c1ccc(Cl)cc1 (stereo not drawn)"
unitname = "%"
testresult = -20.6

[[record]]
compound = "Cc1cc2cc3c(cc2nc1SCC(=O)Nc1c(C)cccc1C)CCC3"
unitname = "%"
testresult = 56.1

[[record]]
compound = "O=C(C1CCN(C2CCN(Cc3ccc4cc(F)ccc4n3)CC2)CC1)N1CCCC1"
unitname = "%"
testresult = 6.09

[[record]]
compound = "COc1cc(N)c(Cl)cc1C(=O)OCC(=O)c1ccc2c(c1)NC(=O)CO2"
unitname = "%"
testresult = 18.8

[[record]]
compound = "Cc1cccc(C)c1NC(=O)CSc1ccc([N+](=O)[O-])cn1"
unitname = "%"
testresult = 7.43

[[record]]
compound = "Cc1cc(C)nc(NC(=O)c2cccc([N+](=O)[O-])c2)c1"
unitname = "%"
testresult = 1.76

[[record]]
compound = "CCc1ccc(CN(C)C(C)C(=O)Nc2ccc(S(=O)(=O)N3CCCC3)cc2)cc1 (stereo not drawn)"
unitname = "%"
testresult = 20.1

[[record]]
compound = "CC1(C(=O)OCC(=O)Nc2ncc(Cl)cc2Cl)CC1(Cl)Cl (stereo not drawn)"
unitname = "%"
testresult = -3.51

[[record]]
compound = "O=C1c2ccccc2C2=Nc3ccccc3SC(c3ccccc3F)C12 (stereo not drawn)"
unitname = "%"
testresult = 65.3

[[record]]
compound = "CN(C(=O)c1cccc([N+](=O)[O-])c1)c1ccccc1C(=O)NCc1ccccc1"
unitname = "%"
testresult = 10.9

[[record]]
compound = "COc1cc2[nH]c(=S)n(CCN3CCCCC3C)c(=O)c2cc1OC (stereo not drawn)"
unitname = "%"
testresult = 39.9

[[record]]
compound = "COc1ccccc1CNC(=O)COC(=O)c1cccs1"
unitname = "%"
testresult = -8.99

[[record]]
compound = "COc1ccc(C2(CNC(=O)Cc3ccc(OC)c(OC)c3)CCCC2)cc1"
unitname = "%"
testresult = 10.1

[[record]]
compound = "Cc1ccc(C(=O)NCCc2nnc(SCC(=O)Nc3cccc(C(=O)O)c3)n2C)cc1"
unitname = "%"
testresult = -17.8

[[record]]
compound = "O=C(NCc1ccc2c(c1)OCO2)c1c(O)nc2sccn2c1=O"
unitname = "%"
testresult = 16.7

[[record]]
compound = "NC(=O)C1CCN(C(=O)c2ccc(F)c(S(=O)(=O)N3CCOCC3)c2)CC1"
unitname = "%"
testresult = -40.7

[[record]]
compound = "C=CCn1c(-c2ccc(Cl)cc2)ccc(C#N)c1=O"
unitname = "%"
testresult = 1.15

[[record]]
compound = "CCOC(=O)C1=C(C)N=C2c3ccccc3C(=O)C2C1c1ccc(Br)cc1 (stereo not drawn)"
unitname = "%"
testresult = 24

[[record]]
compound = "Cc1ccc(-n2nc(C)c(/C=N/NC(=O)c3cccs3)c2Cl)cc1"
unitname = "%"
testresult = 3.87

[[record]]
compound = "Cc1cccc(-n2c(C)cc(/C=N/NC(N)=S)c2C)c1"
unitname = "%"
testresult = -13.2

[[record]]
compound = "COc1ccc(-c2nc3c(s2)CCc2onc(-c4ccc(OC)cc4)c2-3)cc1"
unitname = "%"
testresult = 1.93

[[record]]
compound = "COc1ccc(/C=C/c2noc(-c3ccccc3OC(C)=O)n2)cc1"
unitname = "%"
testresult = -61.9

